experiment: in vitro; details: Sprague-Dawley, rat, microsomes
quantity: remaining at 0.25 h, 3 µM
Remember to quote the unit after the number.

Look up remaining at 0.25 h, 3 µM: Cn1cc(-c2cc(-c3cc(Cl)c(F)c(OCc4ccccc4Cl)c3)c(=O)n(-c3cccnc3)c2)c(=O)[nH]c1=O 17.4%

----------
assay: Mouse liver microsome stability assay; details: CD-1, mouse, microsomes
quantity: remaining at 10 min, 3 µM (%)
// return numeric value only (unit: %, not printed)

Find the recorded remaining at 10 min, 3 µM belonging to O=c1[nH]cccc1-c1cn(-c2cc(Cl)cc(OCc3ncsc3C(F)(F)F)c2)c(=O)n(-c2cccnc2)c1=O [Compound 45] and report it. 43

Tell me the measured remaining at 10 min, 3 µM of O=c1[nH]cccc1-c1cn(-c2cc(Cl)cc(OCc3nccn3C(F)F)c2)c(=O)n(-c2cccnc2)c1=O [Compound 41] , please. 50.2

What does the data say about its remaining at 10 min, 3 µM? Entry: O=c1[nH]cccc1-c1cn(-c2cc(Cl)cc(OCCC(F)(F)F)c2)c(=O)n(-c2cccnc2)c1=O [Compound 36] 90.1

Tell me the measured remaining at 10 min, 3 µM of O=c1[nH]cccc1-c1cn(-c2cc(Cl)cc(OCc3ccccc3Cl)c2)c(=O)n(-c2cccnc2)c1=O [Compound 43] , please. 10.4

The measurements presented in this section are drawn from paper PMC10577883.
